Test: Half life in rat at 10 mg/kg, po
Assay type: ADME, organism-based
Parameters: dose 10 mg/kg, route oral
Conditions: in vivo
Property Measured: half-life (h)

>>> df
                                   compound  property_measured  measurement_unit  assay_value
0  CCCSc1nc(N[C@@H]2C[C@H]2c2ccc(Cl)s2)c2nnn([C@@H]3C[C@H](OCCO)[C@@H](O)[C@H]3O)c2n1          half-life                 h         3.35
1  CCCSc1nc(N[C@@H]2C[C@H]2c2ccc(F)c(F)c2)c2nnn([C@@H]3C[C@H](OCCO)[C@@H](O)[C@H]3O)c2n1          half-life                 h         2.23
2  CCCSc1nc(N[C@@H]2C[C@H]2c2ccc(F)c(F)c2)c2nnn([C@H]3[C@H](O)[C@H](O)[C@@H](OCCO)[C@H]3F)c2n1          half-life                 h         2.83
3  CCCSc1nc(N[C@@H]2C[C@H]2c2ccc(F)c(F)c2)c2nnn(C3[C@H](O)[C@H](O)[C@@H](O)[C@H]3O)c2n1 (some centres not stated)          half-life                 h          1.7

P. CCCSc1nc(N[C@@H]2C[C@H]2c2ccc(F)c(F)c2)c2nnn([C@H]3[C@H](O)[C@H](O)[C@@H](O)[C@H]3F)c2n1
Q. CCCSc1nc(N[C@@H]2C[C@H]2c2ccc(F)c(F)c2)c2nnn([C@@H]3C[C@H](F)[C@@H](O)[C@H]3O)c2n1
Input: Lowest half-life? choose P or Q Give the label under which the chosen entry appears.
Output: Q

---

Test: AUC in dog at 1 mg/kg, po
Type: ADME, organism-based, Canis lupus familiaris
Parameters: dose 1 mg/kg, route oral
Settings: plasma
Property Measured: AUC (ng·h/mL)

>>> df
                                   compound  assay_value
0  CCCSc1nc(N[C@@H]2C[C@H]2c2ccc(F)c(F)c2)c2nnn([C@H]3[C@H](O)[C@H](O)[C@@H](O)[C@H]3F)c2n1          469

a. CCCSc1nc(N[C@@H]2C[C@H]2c2ccc(F)c(F)c2)c2nnn([C@@H]3C[C@H](OCCO)[C@@H](O)[C@H]3O)c2n1 [TICAGRELOR]
b. CCCSc1nc(N[C@@H]2C[C@H]2c2ccc(F)c(F)c2)c2nnn([C@@H]3C[C@H](F)[C@@H](O)[C@H]3O)c2n1
c. CCCSc1nc(N[C@@H]2C[C@H]2c2ccc(F)c(F)c2)c2nnn([C@H]3[C@H](O)[C@H](O)[C@@H](OCCO)[C@H]3F)c2n1
Input: Task field, ranking: reported AUC, descending order. Submit the labels in the order that the ranking request calls for.
Output: a, c, b
(a: 504 ng·h/mL, c: 218 ng·h/mL, b: 24.3 ng·h/mL)
